- Assay target: human APJ receptor (Homo sapiens)
- Construct: expressed in transfected cells
- Assay procedure: Intracellular cAMP accumulation assay (APJ hcAMP, HTRF)
- Assay type: cell-based
- Conditions: Table 1; HEK293 cells stably expressing human APJ receptor; inhibition of forskolin-mediated cAMP production; read-out: APJ hcAMP EC50
pEC50: −log10 of the molar value.
Documented pEC50 across a set of molecules
Measure name: pEC50

{"columns": ["Molecule", "Assay target", "Measure name", "Readout value"],
 "data": [
  ["COc1ccccc1[C@@H](C)NC(=O)c1ccc(-c2cc(Cl)ccc2-c2nc3ccccc3[nH]2)c(C(=O)O)c1", "human APJ receptor (Homo sapiens)", "pEC50", "> 8.00"],
  ["COc1cc2[nH]c(-c3cccc(Cl)c3-c3ccc(C(=O)NCCCN(C)C)cc3C(=O)O)nc2cc1F", "human APJ receptor (Homo sapiens)", "pEC50", "7.00 to 8.00"],
  ["CCCC(NC(=O)c1ccc(-c2c(Cl)cccc2-c2nc3ccccc3[nH]2)c(C(=O)O)c1)c1ccccc1OC (centres unmarked)", "human APJ receptor (Homo sapiens)", "pEC50", "> 8.00"],
  ["CCCC(NC(=O)c1ccc(-c2c(Cl)cccc2-c2nc3ccccc3[nH]2)c(C(=O)O)c1)c1cncs1 (centres unmarked) [Example 194]", "human APJ receptor (Homo sapiens)", "pEC50", "7.00 to 8.00"],
  ["CCC[C@@H](NC(=O)c1ccc(-c2cc(OC)ccc2-c2nc3ccccc3[nH]2)c(C(=O)O)c1)c1ccccc1", "human APJ receptor (Homo sapiens)", "pEC50", "> 8.00"],
  ["O=C(N[C@H](c1ccc(F)cc1)C1CC1)c1ccc(-c2c(Cl)cccc2-c2nc3ccccc3[nH]2)c(C(=O)O)c1", "human APJ receptor (Homo sapiens)", "pEC50", "> 8.00"],
  ["COC[C@@H](NC(=O)c1ccc(-c2c(Cl)cccc2-c2nc3ccccc3[nH]2)c(C(=O)O)c1)c1ccccc1 (atropisomer, axis not shown)", "human APJ receptor (Homo sapiens)", "pEC50", "> 8.00"],
  ["CCC[C@@H](NC(=O)c1ccc(-c2cc(OC)ccc2-c2nc3cc(OC)ccc3[nH]2)c(C(=O)O)c1)c1ccccc1", "human APJ receptor (Homo sapiens)", "pEC50", "> 8.00"]
]}

###

- Assay target: human APJ receptor (Homo sapiens)
- Construct: expressed in transfected cells
- Sequence (P35414 1-380): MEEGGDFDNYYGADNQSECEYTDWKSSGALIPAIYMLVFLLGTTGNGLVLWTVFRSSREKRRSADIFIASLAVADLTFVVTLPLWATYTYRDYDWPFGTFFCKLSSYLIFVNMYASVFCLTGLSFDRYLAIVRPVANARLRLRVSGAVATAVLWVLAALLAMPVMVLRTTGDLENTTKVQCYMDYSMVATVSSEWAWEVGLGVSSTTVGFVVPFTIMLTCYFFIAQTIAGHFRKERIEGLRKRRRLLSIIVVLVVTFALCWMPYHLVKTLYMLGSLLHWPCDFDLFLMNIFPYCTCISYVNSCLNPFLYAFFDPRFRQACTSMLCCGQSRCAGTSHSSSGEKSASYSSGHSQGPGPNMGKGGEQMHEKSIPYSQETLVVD
- Assay procedure: Intracellular cAMP accumulation assay (APJ hcAMP, HTRF)
- Type: cell-based
- Conditions: Table 3; HEK293 cells stably expressing human APJ receptor; read-out: APJ cAMP Human EC50
- Method: Intracellular cAMP Accumulation Assay HEK293 cells stably expressing human APJ receptor were used to assess the activity of compounds. Cultured cells were detached and resuspended in the cAMP Homogeneous Time-Resolved Fluorescence (HTRF) assay buffer (Cisbio cat; #62AM4PEJ). The assay was performed in 384-well assay plates (Perkin-Elmer; cat #6008289) according to assay protocol provided by the manufacturer. […] The fluorescence emission ratio was measured using fluorometer. […]
Documented EC50 across a set of compounds
Measure name: EC50

{"columns": ["Compound", "Measure name", "Readout value"],
 "data": [
  ["COC[C@@H](NC(=O)c1ccc(-c2c(Cl)cccc2-c2nc3cc(OC)c(F)cc3[nH]2)c(C(=O)O)c1)c1ccccc1 (atropisomer, axis not shown) [Example 154]", "EC50", "< 10 nM"],
  ["CCC[C@@H](NC(=O)c1ccc(-c2c(Cl)cccc2-c2nc3cc(OC(C)=O)ccc3[nH]2)c(C(=O)O)c1)c1ccccc1 (atropisomer, axis not shown) [Example 136]", "EC50", "101 to 500 nM"],
  ["CCC[C@@H](NC(=O)c1ccc(-c2c(Cl)cccc2-c2nc3cc(Cl)cc(C)c3[nH]2)c(C(=O)O)c1)c1ccccc1 (atropisomer, axis not shown) [Example 95]", "EC50", "< 10 nM"],
  ["CCC[C@@H](NC(=O)c1ccc(-c2c(C)cccc2-c2nc3ccccc3[nH]2)c(C(=O)O)c1)c1ccccc1 [Example 139]", "EC50", "< 10 nM"],
  ["CCC[C@@H](NC(=O)c1ccc(-c2c(Cl)cccc2-c2nc3c(OC)ccc(OC)c3[nH]2)c(C(=O)O)c1)c1ccccc1 (atropisomer, axis not shown) [Example 98]", "EC50", "10 to 100 nM"],
  ["COc1cc2[nH]c(-c3cccc(Cl)c3-c3ccc(C(=O)N4CCc5ccccc5C4)cc3C(=O)O)nc2cc1F [Example 113]", "EC50", "< 10 nM"],
  ["CCC[C@@H](NC(=O)c1ccc(-c2c(Cl)cccc2-c2nc3ccccc3[nH]2)c(C(=O)O)c1)c1ccccc1 (atropisomer, axis not shown) [Example 141]", "EC50", "10 to 100 nM"],
  ["CCCC(NC(=O)c1ccc(-c2c(Cl)cccc2-c2ncc(-c3cccnc3)[nH]2)c(C(=O)O)c1)c1ccccc1 (centres unmarked) [Example 101]", "EC50", "< 10 nM"]
]}

###

- Assay target: human APJ receptor (Homo sapiens)
- Construct: expressed in transfected cells
- Assay procedure: Intracellular cAMP accumulation assay (APJ hcAMP, HTRF)
- Assay type: cell-based
- Conditions: Table 1; HEK293 cells stably expressing human APJ receptor; inhibition of forskolin-mediated cAMP production; read-out: APJ hcAMP EC50
pEC50: −log10 of the molar value.
Measure name: pEC50

{"columns": ["Compound", "Readout value"],
 "data": [
  ["CCC[C@@H](NC(=O)c1ccc(-c2cc(Cl)ccc2-c2nc3cc(C4CC4)ccc3[nH]2)c(C(=O)O)c1)c1ccccc1 [Example 15]", "> 8.00"],
  ["CCC[C@@H](NC(=O)c1ccc(-c2cc(Cl)ccc2-c2nc3ccccc3[nH]2)c(-c2n[nH]c(=O)o2)c1)c1ccccc1 [Example 9]", "7.00 to 8.00"],
  ["CCCC(NC(=O)c1ccc(-c2c(Cl)cccc2-c2nc3ccccc3[nH]2)c(C(=O)O)c1)c1cncs1 (single isomer, unassigned) [Example 186]", "> 8.00"]
]}
